Source of measurements: the supplement of paper PMC7214452

Tested on: MM1.S (cancer type: MM)
Test: normalized area under the dose-response curve (viability relative to DMSO control) (fraction); higher = less sensitive (more viable cells)
Conditions: exposure time not given
Record condition met whenever normalized area under the dose-response curve is at 0.8 or higher; record condition not met when lower.

Req: Kindly determine if normalized area under the dose-response curve recorded for Nc1ncn([C@H]2C[C@H](O)[C@@H](CO)O2)c(=O)n1 [Decitabine] is above or exactly 0.8.
Resp: condition met

More entries:
Req: Kindly determine if normalized area under the dose-response curve recorded for COc1cc2nccc(Oc3ccc(NC(=O)C4(C(=O)Nc5ccc(F)cc5)CC4)cc3)c2cc1OC [Cabozantinib] is above or exactly 0.8.
Resp: condition not met

Req: Kindly determine if normalized area under the dose-response curve recorded for COc1nc(N)nc2c1ncn2[C@@H]1O[C@H](CO)[C@@H](O)[C@@H]1O [Nelarabine] is above or exactly 0.8.
Resp: condition met

Req: Kindly determine if normalized area under the dose-response curve recorded for C[C@@H]1CCN(C(=O)CC#N)C[C@@H]1N(C)c1ncnc2[nH]ccc12 [Tofacitinib] is above or exactly 0.8.
Resp: condition met

Req: Kindly determine if normalized area under the dose-response curve recorded for CN(C)C/C=C/C(=O)Nc1cc2c(Nc3ccc(F)c(Cl)c3)ncnc2cc1O[C@H]1CCOC1 [Afatinib] is above or exactly 0.8.
Resp: condition not met

Req: Kindly determine if normalized area under the dose-response curve recorded for CC(C)C[C@H](NC(=O)CNC(=O)c1cc(Cl)ccc1Cl)B(O)O [Ixazomib] is above or exactly 0.8.
Resp: condition not met

Req: Kindly determine if normalized area under the dose-response curve recorded for CC(=O)OC[C@H]1O[C@@H]([S-])[C@H](OC(C)=O)[C@@H](OC(C)=O)[C@@H]1OC(C)=O.CCP(CC)CC.[Au+] [Auranofin] is above or exactly 0.8.
Resp: condition not met

Req: Kindly determine if normalized area under the dose-response curve recorded for O=C(c1ccc(F)c(F)c1Nc1ccc(I)cc1F)N1CC(O)([C@@H]2CCCCN2)C1 [Cobimetinib] is above or exactly 0.8.
Resp: condition not met

----------
Test system: KMS28BM (cancer type: MM)
Assay: normalized area under the dose-response curve (viability relative to DMSO control) (fraction); higher = less sensitive (more viable cells)
Details: exposure time not given
property_measured: normalized area under the dose-response curve

Req: // returns reported normalized area under the dose-response curve for input CN(C)C/C=C/C(=O)Nc1cc2c(Nc3ccc(F)c(Cl)c3)ncnc2cc1O[C@H]1CCOC1
Resp: 0.682

----------
Test system: KMS26 (cancer type: MM)
Assay: normalized area under the dose-response curve (viability relative to DMSO control) (fraction); higher = less sensitive (more viable cells)
Details: exposure time not given
Each entry below carries its recorded normalized area under the dose-response curve.
Give the figure by itself; no unit, no explanation.

Here are 3 compounds together with their reported answers.
Req: Could you share what normalized area under the dose-response curve was measured for Cc1[nH]c2ccccc2c1CCNCc1ccc(/C=C/C(=O)NO)cc1 , tested on KMS26 (cancer type: MM)?
Resp: 0.454

Req: Could you share what normalized area under the dose-response curve was measured for Nc1cccc2c1C(=O)N(C1CCC(=O)NC1=O)C2=O (stereo not given) [Pomalidomide] , tested on KMS26 (cancer type: MM)?
Resp: 0.86

Req: Could you share what normalized area under the dose-response curve was measured for CC(C)C[C@H](NC(=O)CNC(=O)c1cc(Cl)ccc1Cl)B(O)O , tested on KMS26 (cancer type: MM)?
Resp: 0.157

More entries:
Req: Could you share what normalized area under the dose-response curve was measured for CNC(=O)c1cc(Oc2ccc(NC(=O)Nc3ccc(Cl)c(C(F)(F)F)c3)c(F)c2)ccn1 , tested on KMS26 (cancer type: MM)?
Resp: 0.844

Req: Could you share what normalized area under the dose-response curve was measured for CC[C@H](Nc1ncnc2[nH]cnc12)c1nc2cccc(F)c2c(=O)n1-c1ccccc1 , tested on KMS26 (cancer type: MM)?
Resp: 0.876

Req: Could you share what normalized area under the dose-response curve was measured for Nc1nc(Cl)nc2c1ncn2[C@H]1C[C@H](O)[C@@H](CO)O1 , tested on KMS26 (cancer type: MM)?
Resp: 0.795

Req: Could you share what normalized area under the dose-response curve was measured for CC(C)C[C@H](NC(=O)[C@H](CCc1ccccc1)NC(=O)CN1CCOCC1)C(=O)N[C@@H](Cc1ccccc1)C(=O)N[C@@H](CC(C)C)C(=O)[C@@]1(C)CO1 , tested on KMS26 (cancer type: MM)?
Resp: 0.0786

Req: Could you share what normalized area under the dose-response curve was measured for CC(C)C[C@H](NC(=O)[C@H](Cc1ccccc1)NC(=O)c1cnccn1)B(O)O , tested on KMS26 (cancer type: MM)?
Resp: 0.0685

----------
Tested on: OCI-MY7 (cancer type: MM)
Test: normalized area under the dose-response curve (viability relative to DMSO control) (fraction); higher = less sensitive (more viable cells)
Conditions: exposure time not given
Where a name gives a salt, the structure may show the parent alone.
property_measured: normalized area under the dose-response curve
Give the figure by itself; no unit, no explanation.

Req: // returns reported normalized area under the dose-response curve for input N[C@@H](Cc1ccc(N(CCCl)CCCl)cc1)C(=O)O [Melphalan hydrochloride]
Resp: 0.73

Req: // returns reported normalized area under the dose-response curve for input Cc1ccc(-n2nc(C(C)(C)C)cc2NC(=O)Nc2ccc(OCCN3CCOCC3)c3ccccc23)cc1
Resp: 0.89

Req: // returns reported normalized area under the dose-response curve for input Cc1noc2c1-c1ccccc1C(c1ccc(Cl)cc1)=N[C@H]2CC(N)=O
Resp: 0.52

Req: // returns reported normalized area under the dose-response curve for input C=CC(=O)Nc1cc(Nc2nccc(-c3cn(C)c4ccccc34)n2)c(OC)cc1N(C)CCN(C)C
Resp: 0.42

Req: // returns reported normalized area under the dose-response curve for input Nc1nc(Cl)nc2c1ncn2[C@@H]1O[C@H](CO)[C@@H](O)[C@@H]1F
Resp: 0.74

More entries:
Req: // returns reported normalized area under the dose-response curve for input Cn1ncc(Cl)c1-c1cc(C(=O)N[C@H](CN)Cc2cccc(F)c2)sc1Cl
Resp: 0.7

Req: // returns reported normalized area under the dose-response curve for input COc1cc(Nc2ncc3c(n2)-c2ccc(Cl)cc2C(c2c(F)cccc2OC)=NC3)ccc1C(=O)O
Resp: 0.92

----------
System: KMS12PE (cancer type: MM)
Experiment: normalized area under the dose-response curve (viability relative to DMSO control) (fraction); higher = less sensitive (more viable cells)
Settings: exposure time not given
property_measured: normalized area under the dose-response curve

Here are 4 compounds together with their reported answers.
Req: // returns reported normalized area under the dose-response curve for input Cn1ncc(Cl)c1-c1cc(C(=O)N[C@H](CN)Cc2cccc(F)c2)sc1Cl
Resp: 0.49

Req: // returns reported normalized area under the dose-response curve for input Cc1ccc(F)c(NC(=O)Nc2ccc(-c3cccc4[nH]nc(N)c34)cc2)c1
Resp: 0.73

Req: // returns reported normalized area under the dose-response curve for input Nc1nc(Cl)nc2c1ncn2[C@@H]1O[C@H](CO)[C@@H](O)[C@@H]1F
Resp: 0.66

Req: // returns reported normalized area under the dose-response curve for input COc1nc(N)nc2c1ncn2[C@@H]1O[C@H](CO)[C@@H](O)[C@@H]1O
Resp: 0.92

From here, focus on the item given below.
Req: // returns reported normalized area under the dose-response curve for input CC(C)(O)CNc1nc(Nc2ccnc(C(F)(F)F)c2)nc(-c2cccc(C(F)(F)F)n2)n1
Resp: 0.9

----------
System: SR-786 (cancer type: TCL)
Experiment: normalized area under the dose-response curve (viability relative to DMSO control) (fraction); higher = less sensitive (more viable cells)
Conditions: exposure time not given
Each entry below carries its recorded normalized area under the dose-response curve.
Give the figure by itself; no unit, no explanation.

Here are 2 compounds together with their reported answers.
Req: // returns reported normalized area under the dose-response curve for input COC(=O)c1ccc2c(c1)NC(=O)/C2=C(\Nc1ccc(N(C)C(=O)CN2CCN(C)CC2)cc1)c1ccccc1 [Nintedanib]
Resp: 0.828

Req: // returns reported normalized area under the dose-response curve for input C[C@@H]1C[C@H]2[C@@H]3CCC4=CC(=O)C=C[C@]4(C)[C@@]3(F)[C@@H](O)C[C@]2(C)[C@@]1(O)C(=O)CO [Dexamethasone]
Resp: 0.972

From here, focus on the item given below.
Req: // returns reported normalized area under the dose-response curve for input CC(=O)O[C@H]1C(=O)[C@@]2(C)[C@H]([C@H](OC(=O)c3ccccc3)[C@]3(O)C[C@H](OC(=O)[C@H](O)[C@@H](NC(=O)c4ccccc4)c4ccccc4)C(C)=C1C3(C)C)[C@]1(OC(C)=O)CO[C@@H]1C[C@@H]2O [Paclitaxel]
Resp: 0.417

----------
Each entry below carries its recorded normalized area under the dose-response curve.
Test system: KMS28BM (cancer type: MM)
Assay: normalized area under the dose-response curve (viability relative to DMSO control) (fraction); higher = less sensitive (more viable cells)
Conditions: exposure time not given
Where a name gives a salt, the structure may show the parent alone.
Give the figure by itself; no unit, no explanation.

Here are 3 compounds together with their reported answers.
Req: // returns reported normalized area under the dose-response curve for input C#Cc1cccc(Nc2ncnc3cc(OCCOC)c(OCCOC)cc23)c1 [Erlotinib hydrochloride]
Resp: 0.847

Req: // returns reported normalized area under the dose-response curve for input CC(C)(C)c1cc(NC(=O)Nc2ccc(-c3cn4c(n3)sc3cc(OCCN5CCOCC5)ccc34)cc2)no1 [Quizartinib]
Resp: 0.838

Req: // returns reported normalized area under the dose-response curve for input Nc1nc(Cl)nc2c1ncn2[C@H]1C[C@H](O)[C@@H](CO)O1 [Cladribine]
Resp: 0.768

More entries:
Req: // returns reported normalized area under the dose-response curve for input Cc1ccc(F)c(NC(=O)Nc2ccc(-c3cccc4[nH]nc(N)c34)cc2)c1 [Linifanib]
Resp: 0.646
